Quick list: ELISA (absorbance units) (absorbance units) per entry.
Target: bovine serum albumin (bovine) (UniProt P02769)
Sequence (P02769 25-607 limits assumed): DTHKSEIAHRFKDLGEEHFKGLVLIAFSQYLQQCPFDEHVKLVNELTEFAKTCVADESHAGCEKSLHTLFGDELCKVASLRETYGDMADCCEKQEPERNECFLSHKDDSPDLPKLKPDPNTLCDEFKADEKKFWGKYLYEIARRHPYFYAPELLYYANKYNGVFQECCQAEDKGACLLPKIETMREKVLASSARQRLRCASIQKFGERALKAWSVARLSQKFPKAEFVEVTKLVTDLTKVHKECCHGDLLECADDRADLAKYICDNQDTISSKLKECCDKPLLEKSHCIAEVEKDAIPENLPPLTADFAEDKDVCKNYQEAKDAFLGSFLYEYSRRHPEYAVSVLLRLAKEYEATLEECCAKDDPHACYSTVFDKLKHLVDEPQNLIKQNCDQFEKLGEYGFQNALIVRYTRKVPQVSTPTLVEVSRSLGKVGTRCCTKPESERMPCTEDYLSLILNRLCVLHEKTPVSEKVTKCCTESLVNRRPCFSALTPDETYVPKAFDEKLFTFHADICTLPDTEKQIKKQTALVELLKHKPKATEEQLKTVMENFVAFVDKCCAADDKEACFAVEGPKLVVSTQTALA
Assay: phage ELISA, 10^9 phagemid per well, BSA-only wells
Positions of bridges follow the written chain, without caps; N, C: chain ends. No end group written: not given here.
# output: bare number, no unit

Illustrative cases are given below, each with its answer.
CSFFYSLCYCWCS (disulfide (positions not given here); also: disulfide cyclised, pairing of the four Cys not given here) [phagemid CS1-31p] = 0.114
CSFRYQWDMFRCS (disulfide 1-12 (inferred)) [phagemid CS1-11p] = 0.278

// query ELISA (absorbance units) (absorbance units) value for entry CSGLYPWDYFMCS (disulfide 1-12 (inferred)) [phagemid CS1-29p]
0.147

// query ELISA (absorbance units) (absorbance units) value for entry CSGLYPWDMFRCS (disulfide 1-12 (inferred)) [phagemid CS1-9p]
0.22

// query ELISA (absorbance units) (absorbance units) value for entry CSFRYLWDQDRCS (disulfide 1-12 (inferred)) [phagemid CS1-6p]
0.27

// query ELISA (absorbance units) (absorbance units) value for entry CSLFYLWDQDRCS (disulfide 1-12 (inferred)) [phagemid CS1-2p]
0.277

Provenance of the data: patent US20110020379A1
